Can you tell me Activity for the items I'm about to list?
test system: Aspergillus fumigatus; test: Antifungal activity against Aspergillus fumigatus MTCC 2550 after 72 hrs by serial dilution method relative to 11,12-Diphenyl-11a,12-dihydro-11H-indeno[2,1-c][1,5]benzothiazepine; format: functional
Entry rule: numbers only, all in %.

Look at this compound and give its reported Activity. COc1ccc2c(c1)SC(c1ccc(C)cc1)C1C(=N2)c2ccccc2C1c1ccccc1 (centres undefined)
54.96

Look at this compound and give its reported Activity. COc1ccc(C2Sc3cc(OC)ccc3N=C3c4ccccc4C(c4ccccc4)C32)cc1 (centres undefined)
89.18

Look at this compound and give its reported Activity. Clc1ccc(C2Sc3ccccc3N=C3c4ccccc4C(c4ccccc4)C32)cc1 (centres undefined)
53.99

Look at this compound and give its reported Activity. COc1ccc(C2Sc3cc(C)ccc3N=C3c4ccccc4C(c4ccccc4)C32)cc1 (centres undefined)
9.84

====

system: Escherichia coli; test: Antibacterial activity against Escherichia coli MTCC 42 after 24 hrs by serial dilution method; type: functional
Can you tell me -logMIC for the items I'm about to list?
Form: value (number only, do not type unit).

Look at this molecule and give its reported -logMIC. COc1ccc2c(c1)SC(c1ccccc1)C1C(=N2)c2ccccc2C1c1ccccc1 (centres undefined)
1.54

Look at this molecule and give its reported -logMIC. COc1ccc(C2Sc3cc(C)ccc3N=C3c4ccccc4C(c4ccccc4)C32)cc1 (centres undefined)
0.95

Look at this molecule and give its reported -logMIC. COc1ccc(C2Sc3cc(Cl)ccc3N=C3c4ccccc4C(c4ccccc4)C32)cc1 (centres undefined)
1.57

Look at this molecule and give its reported -logMIC. Clc1ccc(C2Sc3ccccc3N=C3c4ccccc4C(c4ccccc4)C32)cc1 (centres undefined)
1.24

====

Quantity Name: -logMIC
Form: value (number only, do not type unit).

Form field: -logMIC recorded for Cc1ccc(C2Sc3cc(C)ccc3N=C3c4ccccc4C(c4ccccc4)C32)cc1 (stereo unspecified) with Bacillus subtilis (enter value)
1.54

Form field: -logMIC recorded for Cc1ccc2c(c1)SC(c1ccc(Cl)cc1)C1C(=N2)c2ccccc2C1c1ccccc1 (stereo unspecified) with Bacillus subtilis (enter value)
0.96

Form field: -logMIC recorded for Cc1ccc(C2Sc3cc(Cl)ccc3N=C3c4ccccc4C(c4ccccc4)C32)cc1 (stereo unspecified) with Bacillus subtilis (enter value)
1.56

Form field: -logMIC recorded for Cc1ccc(C2Sc3ccccc3N=C3c4ccccc4C(c4ccccc4)C32)cc1 (stereo unspecified) with Bacillus subtilis (enter value)
1.22

Form field: -logMIC recorded for COc1ccc2c(c1)SC(c1ccc(C)cc1)C1C(=N2)c2ccccc2C1c1ccccc1 (stereo unspecified) with Bacillus subtilis (enter value)
0.95

Form field: -logMIC recorded for Cc1ccc2c(c1)SC(c1ccccc1)C1C(=N2)c2ccccc2C1c1ccccc1 (stereo unspecified) with Bacillus subtilis (enter value)
0.92
